Give measured Maximum fluorescence value for each item. Keep answers brief.
- SUBJECT_OF_TEST: T1, human 4-1BB on the surface of HEK293 cells (HEK293-Hu4-1BB) (human, UniProt Q07011 24-255)
- T1 construct: whole, on cells; also called CD137; cell strain highly expressing human 4-1BB
- PROTOCOL_NOTES: FACS, HEK293-Hu4-1BB cells
// response body must contain only the number

Query: # return recorded Maximum fluorescence value for entry humanized anti-4-1BB nanobody C5_V2 linked to human IgG1-Fc (Fc fusion) QVQLVESGGGLVQPGGSLRLSCSASGFTFSSYAMSWVRQAPGKGLEWVSDINSGGESTFYEDSVKGRFTISRDNAKNTLYLQMNSLRAEDTAVYYCAKHPLTFTIATMNDYDYWGQGTLVTVSSEPKSADKTHTCPPCPAPELLGGPSVFLFPPKPKDTLMISRTPEVTCVVVDVEHEDPEVKFNWYVDGVEVHNAKTKPREEQYNSTYRVVSVLTVLHQDWLNGKEYKCKVSSKAFPAPIEKTISKAKGQPREPQVYTLPPSRDELTKNQVSLTCLVKGFYPSDIAVEWESNGQPENNYKTTPPVLDSDGSFFLYSKLTVDKSRWQQGNVFSCSVMHEALHNHYTQKSLSLSPGK
Response: 53700

Query: # return recorded Maximum fluorescence value for entry Urelumab (positive control anti-4-1BB antibody) (antibody, V domains shown) VH: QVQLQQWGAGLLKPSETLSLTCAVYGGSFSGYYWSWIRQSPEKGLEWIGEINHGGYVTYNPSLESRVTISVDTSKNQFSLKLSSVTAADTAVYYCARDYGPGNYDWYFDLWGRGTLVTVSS VL: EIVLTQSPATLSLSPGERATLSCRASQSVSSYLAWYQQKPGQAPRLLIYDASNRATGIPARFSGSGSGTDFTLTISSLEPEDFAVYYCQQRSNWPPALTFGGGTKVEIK
Response: 39700

Query: # return recorded Maximum fluorescence value for entry C5_V2-YTI (TCE-optimized C5_V2, F99Y Kabat) linked to human IgG1-Fc (Fc fusion) QVQLVESGGGLVQPGGSLRLSCSASGFTFSSYAMSWVRQAPGKGLEWVSDINSGGESTFYEDSVKGRFTISRDNAKNTLYLQMNSLRAEDTAVYYCAKHPLTYTIATMNDYDYWGQGTLVTVSSEPKSADKTHTCPPCPAPELLGGPSVFLFPPKPKDTLMISRTPEVTCVVVDVEHEDPEVKFNWYVDGVEVHNAKTKPREEQYNSTYRVVSVLTVLHQDWLNGKEYKCKVSSKAFPAPIEKTISKAKGQPREPQVYTLPPSRDELTKNQVSLTCLVKGFYPSDIAVEWESNGQPENNYKTTPPVLDSDGSFFLYSKLTVDKSRWQQGNVFSCSVMHEALHNHYTQKSLSLSPGK
Response: 53800

Query: # return recorded Maximum fluorescence value for entry C5_V2-YTIQ linked to human IgG1-Fc (Fc fusion) QVQLVESGGGLVQPGGSLRLSCSASGFTFSSYAMSWVRQAPGKGLEWVSDINSGGQSTFYADSVKGRFTISRDNAKNTLYLQMNSLRAEDTAVYYCAKHPLTYTIATMNDYDYWGQGTQVTVSSEPKSADKTHTCPPCPAPELLGGPSVFLFPPKPKDTLMISRTPEVTCVVVDVEHEDPEVKFNWYVDGVEVHNAKTKPREEQYNSTYRVVSVLTVLHQDWLNGKEYKCKVSSKAFPAPIEKTISKAKGQPREPQVYTLPPSRDELTKNQVSLTCLVKGFYPSDIAVEWESNGQPENNYKTTPPVLDSDGSFFLYSKLTVDKSRWQQGNVFSCSVMHEALHNHYTQKSLSLSPGK
Response: 51700
